Source listed as paper PMC11765156.

Listed here: items and their measured LC50/EC50.
# Test system: Balanus amphitrite
# measurement.notes: Anti-settlement assay with barnacle cyprid larvae (settlement inhibition and mortality, 48 h)
# Format: in vivo
# details: Balanus amphitrite; ratio >15 indicating low toxicity
# Protocol: Compounds dissolved in DMSO were sequentially administered to the wells, starting with a concentration of 25 µg/mL and proceeding with serial half-logarithmic dilutions. The volume of the compound in each well was maintained at […], with seawater as the blank control, DMSO as the negative control, and SeaNine 211 serving as the positive control. […]

Example entries and their recorded answers appear below.
compound	readout.label	endpoint.result
COC(=O)C12OCC34C(CC5C(C)=C(O)C(=O)CC5(C)C3C(O)C1O)OC(=O)C(OC(=O)Cc1cccc(C#N)c1)C24 (stereo not drawn) [Compound 13]	LC50/EC50	3.5854
COC(=O)C12OCC34C(CC5C(C)=C(O)C(=O)CC5(C)C3C(O)C1O)OC(=O)C(OC(=O)c1ccc(Cl)cc1)C24 (stereo not drawn) [Compound 4]	LC50/EC50	2.1018

Could you now look at the following compound, please?
Consider COC(=O)C12OCC34C(CC5C(C)=C(O)C(=O)CC5(C)C3C(O)C1O)OC(=O)C(OC(=O)CCC#N)C24 (stereo not drawn) [Compound 12, 15-O-(3′-Cyanopropanoyl)-Bruceolide] . Its measured LC50/EC50 is 2.0219

###

# System: Balanus amphitrite
# measurement.notes: Anti-settlement assay with barnacle cyprid larvae (settlement inhibition and mortality, 48 h)
# Format: in vivo
# details: Balanus amphitrite; ratio >15 indicating low toxicity
Simple rule here: LC50/EC50 less than 5 is fulfilled, otherwise not fulfilled.

compound	class.assignment
COC(=O)C12OCC34C(CC5C(C)=C(O)C(=O)CC5(C)C3C(O)C1O)OC(=O)C(OC(=O)CCCCl)C24 (stereo not drawn) [Compound 3, 15-O-(4′-Chlorobutanoyl)-Bruceolide]	not fulfilled
COC(=O)C12OCC34C(CC5C(C)=C(O)C(=O)CC5(C)C3C(O)C1O)OC(=O)C(OC(=O)CCCCCl)C24 (stereo not drawn) [Compound 2, 15-O-(5′-Chlorovaleryl)-Bruceolide]	fulfilled
COC(=O)C12OCC34C(CC5C(C)=C(O)C(=O)CC5(C)C3C(O)C1O)OC(=O)C(OC(=O)c1ccc(Cl)s1)C24 (stereo not drawn)	fulfilled
COC(=O)C12OCC34C(CC5C(C)=C(O)C(=O)CC5(C)C3C(O)C1O)OC(=O)C(OC(=O)c1ccc(C(C)=O)s1)C24 (stereo not drawn)	fulfilled
COC(=O)C12OCC34C(CC5C(C)=C(O)C(=O)CC5(C)C3C(O)C1O)OC(=O)C(OC(=O)c1ccc(Cl)nc1)C24 (stereo not drawn)	not fulfilled

Could you now look at the following compound, please?
Does the reported LC50/EC50 of the following compound sit strictly below 5? COC(=O)C12OCC34C(CC5C(C)=C(O)C(=O)CC5(C)C3C(O)C1O)OC(=O)C(OC(=O)Cc1cccc(F)c1)C24 (stereo not drawn) [Compound 8, 15-O-(5′-Fluorophenylacetyl)-Bruceolide]
not fulfilled
